Recorded measurements of melting point, one per entry

>>> recorded_value("Cc1cc2c(cc1C(F)(F)F)NC(=O)CC(c1ccnc(-c3ccncc3)c1)=N2 [Example 292]")
"224 to 226 °C"
>>> recorded_value("O=C1CC(c2cccc(-c3ccccn3)c2)=Nc2ccc(C(F)(F)F)cc2N1 [Example 33]")
"226 to 227 °C"
>>> recorded_value("Cc1cc(-c2cccc(C3=Nc4ccc(Cl)cc4NC(=O)C3)c2)ncn1 [Example 312]")
"199 to 200 °C"
>>> recorded_value("O=C1CC(c2cccc(-c3ccc(C4CC4)nc3)c2)=Nc2ccc(OC(F)(F)F)cc2N1 [Example 207]")
"190 to 191 °C"
>>> recorded_value("COCCNc1nc(C)cc(-c2cccc(C3=Nc4cc(C)c(C(F)(F)F)cc4NC(=O)C3)c2)n1 [Example 324]")
"236 to 238 °C"
>>> recorded_value("CCOc1ccc2c(c1)N=C(c1cccc(-c3ccncc3)c1)CC(=O)N2 [Example 163]")
"180 to 185 °C"

Exercise: Form field: reported melting point of Cc1cc2c(cc1C(F)(F)F)NC(=O)CC(c1cccc(-c3cccnc3C3CC3)c1)=N2 [Example 221]
Solution: 173 to 175 °C

Exercise: // returns reported melting point for input O=C1CC(c2cccc(-c3ccnc(C4CCCC4)c3)c2)=Nc2ccc(C(F)(F)F)cc2N1 [Example 352]
Solution: 165 to 167 °C
